Ref: patent US20260049134A1

# key: entry, value: ELISA Absorbance (405 nm-570 nm)
Biological target: T1, PTPRG-Fc (ECD of human PTPRG, aa 20-736, fused to human Fc gamma 1) (human, UniProt P23470 20-736)
T1 construct: Made in-house in Expi293 cells; Used in ELISA and SPR; also called recombinant PTPRG-Fc; PTRPG; not shown: human IgG1 Fc (Fc gamma 1) after the hinge
T1 sequence: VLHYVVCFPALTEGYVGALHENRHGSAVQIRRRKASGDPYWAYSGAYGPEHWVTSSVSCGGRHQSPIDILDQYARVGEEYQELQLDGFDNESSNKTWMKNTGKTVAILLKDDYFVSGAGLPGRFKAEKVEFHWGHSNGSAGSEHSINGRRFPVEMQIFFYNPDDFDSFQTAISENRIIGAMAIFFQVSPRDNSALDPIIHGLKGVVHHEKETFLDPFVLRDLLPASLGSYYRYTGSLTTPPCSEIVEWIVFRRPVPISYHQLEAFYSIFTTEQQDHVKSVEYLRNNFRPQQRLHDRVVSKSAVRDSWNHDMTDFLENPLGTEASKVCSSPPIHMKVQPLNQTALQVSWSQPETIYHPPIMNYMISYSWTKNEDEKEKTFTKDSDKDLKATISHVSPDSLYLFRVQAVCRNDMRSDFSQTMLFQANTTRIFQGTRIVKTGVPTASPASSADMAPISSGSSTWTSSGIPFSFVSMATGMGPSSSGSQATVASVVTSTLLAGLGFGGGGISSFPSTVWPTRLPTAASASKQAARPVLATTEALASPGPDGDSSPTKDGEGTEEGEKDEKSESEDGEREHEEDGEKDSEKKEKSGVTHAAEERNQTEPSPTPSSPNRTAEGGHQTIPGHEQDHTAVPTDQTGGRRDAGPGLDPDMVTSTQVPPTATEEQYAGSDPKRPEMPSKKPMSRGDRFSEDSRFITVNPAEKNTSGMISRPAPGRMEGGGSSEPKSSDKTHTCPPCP
Experiment: ELISA on coated PTPRG-Fc, 150 ng IgG1; None 0.117
Number only, please.

HW-1 chimeric rabbit-human IgG1 LA/LA/PG (antibody, V domains shown, Fc-silenced (L234A/L235A/P329G) IgG1, lambda; Alexa Fluor 647-labeled in single-step flow cytometry; Prototype of cluster C-1) VH: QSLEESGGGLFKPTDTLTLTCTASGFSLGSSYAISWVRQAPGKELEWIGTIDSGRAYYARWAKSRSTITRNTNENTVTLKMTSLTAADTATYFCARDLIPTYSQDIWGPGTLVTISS VL: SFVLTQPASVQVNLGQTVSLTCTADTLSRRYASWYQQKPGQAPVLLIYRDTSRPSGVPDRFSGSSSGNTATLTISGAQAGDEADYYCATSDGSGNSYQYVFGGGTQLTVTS
0.756
HW-97 chimeric rabbit-human IgG1 LA/LA/PG (antibody, V domains shown, Fc-silenced (L234A/L235A/P329G) IgG1, lambda; Alexa Fluor 647-labeled in single-step flow cytometry; Prototype of cluster C-97) VH: QKQLVESGGRLVTPGTPLTLTCTVTGIDLSSHGMSWVRQAPGKGLEWIGVIYPSGSTWYASWARGRFTISKTSTTVDLKMTSLTTEDTATHFCARGDVGGADNNIWGPGTLVTVSS VL: SFVLTQPASVQVDLGQTVSLTCTAETLSRSYASWYQQKPGQAPVLLIYRDTSRPSGVPDRFSGSSSGNTATLTISGAQAGDEADYYCATSDGSGSSYQYVFGGGTQLTVTG
0.096

// switching to the query binder
Give the reported ELISA Absorbance (405 nm-570 nm) for this binder. HW-42 chimeric rabbit-human IgG1 LA/LA/PG (antibody, V domains shown, Fc-silenced (L234A/L235A/P329G) IgG1, lambda; Alexa Fluor 647-labeled in single-step flow cytometry; Cluster C-1) VH: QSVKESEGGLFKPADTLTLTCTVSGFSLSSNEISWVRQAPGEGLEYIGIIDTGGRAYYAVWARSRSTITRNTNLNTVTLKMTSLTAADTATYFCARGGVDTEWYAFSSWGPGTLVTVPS VL: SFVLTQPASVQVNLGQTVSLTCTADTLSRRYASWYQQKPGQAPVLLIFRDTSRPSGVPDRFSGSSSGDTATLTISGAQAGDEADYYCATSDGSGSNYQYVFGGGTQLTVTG
0.341
